tgt: Protein cereblon/Casein kinase I isoform delta (Homo sapiens, UniProt P48730+Q96SW2)
protocolText: PROTAC activity at CRBN/Hibit-fused CK1 delta in human MV4-11 cells assessed as degradation of CK1-delta incubated for 6 hrs by Nano-Glo HiBiT assay relative to control
Assay type: cell-based
Sequence (P48730 whole entry, looked up, the tested form may be a part, canonical isoform): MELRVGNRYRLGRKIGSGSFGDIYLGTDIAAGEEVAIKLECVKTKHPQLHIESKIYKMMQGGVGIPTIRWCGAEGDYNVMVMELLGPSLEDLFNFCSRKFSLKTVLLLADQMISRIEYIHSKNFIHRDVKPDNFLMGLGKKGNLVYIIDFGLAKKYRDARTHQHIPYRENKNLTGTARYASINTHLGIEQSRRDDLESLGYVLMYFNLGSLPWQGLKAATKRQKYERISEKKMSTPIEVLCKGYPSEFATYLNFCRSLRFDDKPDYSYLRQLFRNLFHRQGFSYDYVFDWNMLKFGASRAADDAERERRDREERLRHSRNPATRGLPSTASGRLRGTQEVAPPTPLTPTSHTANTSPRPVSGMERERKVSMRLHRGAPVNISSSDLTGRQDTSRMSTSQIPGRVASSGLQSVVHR
Sequence (Q96SW2 whole entry, looked up, the tested form may be a part, canonical isoform): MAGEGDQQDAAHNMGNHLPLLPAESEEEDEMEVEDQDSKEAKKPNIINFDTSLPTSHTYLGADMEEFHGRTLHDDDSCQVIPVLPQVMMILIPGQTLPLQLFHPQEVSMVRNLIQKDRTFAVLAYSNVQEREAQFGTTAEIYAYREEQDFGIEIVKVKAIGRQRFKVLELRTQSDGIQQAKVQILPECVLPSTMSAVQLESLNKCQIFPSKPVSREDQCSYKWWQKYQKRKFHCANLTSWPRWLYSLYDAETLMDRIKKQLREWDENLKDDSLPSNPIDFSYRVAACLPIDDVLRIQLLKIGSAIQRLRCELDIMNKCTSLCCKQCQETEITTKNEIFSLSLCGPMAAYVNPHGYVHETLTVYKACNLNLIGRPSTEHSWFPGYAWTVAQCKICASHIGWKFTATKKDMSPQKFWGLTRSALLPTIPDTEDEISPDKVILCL
Documented Emax across a set of compounds

Previously resolved entries follow.
O=C(CCOCCOCCOCCOCCN1CCC(F)(Cn2cnc(-c3ccc(F)cn3)c2-c2ccnc3[nH]ccc23)CC1)NCCNc1cccc2c1C(=O)N(C1CCC(=O)NC1=O)C2=O (stereo unspecified) : 40.2%
O=C1CCC(N2C(=O)c3cccc(OCCCCCCN4CCC(F)(Cn5cnc(-c6ccc(F)cn6)c5-c5ccnc6[nH]ccc56)CC4)c3C2=O)C(=O)N1 (stereo unspecified) : 15%
O=C1CCC(N2C(=O)c3cccc(NCCOCCOCCOCCC(=O)N4CCC(F)(Cn5cnc(-c6ccc(F)cn6)c5-c5ccnc6[nH]ccc56)CC4)c3C2=O)C(=O)N1 (stereo unspecified) : 34.4%
O=C1CCC(N2C(=O)c3cccc(NCc4ccc(CC(=O)N5CCC(F)(Cn6cnc(-c7ccc(F)cn7)c6-c6ccnc7[nH]ccc67)CC5)cc4)c3C2=O)C(=O)N1 (stereo unspecified) : 14.4%
O=C(COc1cccc2c1C(=O)N(C1CCC(=O)NC1=O)C2=O)NCCCCCC(=O)N1CCC(F)(Cn2cnc(-c3ccc(F)cn3)c2-c2ccnc3[nH]ccc23)CC1 (stereo unspecified) : 18.2%

// switching to the query compound
Exercise: Fill in the blank: the reported Emax of O=C(CCOCCOCCOCCN1CCC(F)(Cn2cnc(-c3ccc(F)cn3)c2-c2ccnc3[nH]ccc23)CC1)NCCNc1cccc2c1C(=O)N(C1CCC(=O)NC1=O)C2=O (stereo unspecified) is ____.
Solution: 36%

---

tgt: Protein cereblon/Casein kinase I isoform delta (Homo sapiens, UniProt P48730+Q96SW2)
protocolText: PROTAC activity at CRBN/Hibit-fused CK1 delta in human MV4-11 cells assessed as degradation of CK1-delta at 10 nM incubated for 6 hrs by Nano-Glo HiBiT assay
Type: cell-based
The source made the active and inactive calls. The calls are words filed in the database; no cut-off is given here.
observable: Activity

O=C(CCOCCOCCN1CCC(F)(Cn2cnc(-c3ccc(F)cn3)c2-c2ccnc3[nH]ccc23)CC1)NCCNc1cccc2c1C(=O)N(C1CCC(=O)NC1=O)C2=O (centres undefined) : Active
O=C1CCC(N2C(=O)c3cccc(NCCCCCC(=O)N4CCC(F)(Cn5cnc(-c6ccc(F)cn6)c5-c5ccnc6[nH]ccc56)CC4)c3C2=O)C(=O)N1 (centres undefined) : Active
O=C(CCOCCOCCOCCOCCN1CCC(F)(Cn2cnc(-c3ccc(F)cn3)c2-c2ccnc3[nH]ccc23)CC1)NCCNc1cccc2c1C(=O)N(C1CCC(=O)NC1=O)C2=O (centres undefined) : Active
O=C(CCOCCOCCOCCN1CCC(F)(Cn2cnc(-c3ccc(F)cn3)c2-c2ccnc3[nH]ccc23)CC1)NCCNc1cccc2c1C(=O)N(C1CCC(=O)NC1=O)C2=O (centres undefined) : Active

---

tgt: Protein cereblon/Casein kinase I isoform delta (Homo sapiens, UniProt P48730+Q96SW2)
protocolText: PROTAC activity at CRBN/full length N-terminal Nano-luc fused CK1 delta (unknown origin) transfected in HEK293T cells incubated for 2 hrs followed by substrate addition by NanoBRET target engagement assay
Sequence (P48730 whole entry, the tested form may be a part, canonical isoform): as the sequence (P48730 whole entry, looked up, the tested form may be a part, canonical isoform) above
Sequence (Q96SW2 whole entry, the tested form may be a part, canonical isoform): as the sequence (Q96SW2 whole entry, looked up, the tested form may be a part, canonical isoform) above
observable: pEC50
Units for pEC50: none; it is -log10 of a concentration expressed in mol/L.

Please review the entries below; each comes with its answer.
O=C(COc1cccc2c1C(=O)N(C1CCC(=O)NC1=O)C2=O)NCCCCCC(=O)N1CCC(F)(Cn2cnc(-c3ccc(F)cn3)c2-c2ccnc3[nH]ccc23)CC1 (stereo not given) : 8.03
O=C(CCOCCOCCOCCOCCN1CCC(F)(Cn2cnc(-c3ccc(F)cn3)c2-c2ccnc3[nH]ccc23)CC1)NCCNc1cccc2c1C(=O)N(C1CCC(=O)NC1=O)C2=O (stereo not given) : 7.95
O=C(CCOCCOCCN1CCC(F)(Cn2cnc(-c3ccc(F)cn3)c2-c2ccnc3[nH]ccc23)CC1)NCCNc1cccc2c1C(=O)N(C1CCC(=O)NC1=O)C2=O (stereo not given) : 8.03

Exercise: Which pEC50 reading was recorded for the compound O=C(COc1cccc2c1C(=O)N(C1CCC(=O)NC1=O)C2=O)NCCOCCOCCOCCC(=O)N1CCC(F)(Cn2cnc(-c3ccc(F)cn3)c2-c2ccnc3[nH]ccc23)CC1 (stereo not given) ?
Solution: 7.80

Exercise: Look up pEC50: O=C1CCC(N2C(=O)c3cccc(OCCCCCCN4CCC(F)(Cn5cnc(-c6ccc(F)cn6)c5-c5ccnc6[nH]ccc56)CC4)c3C2=O)C(=O)N1 (stereo not given)
Solution: 8.82

Exercise: GET /values?readout=pEC50&item= O=C(CCOCCOCCOCCN1CCC(F)(Cn2cnc(-c3ccc(F)cn3)c2-c2ccnc3[nH]ccc23)CC1)NCCNc1cccc2c1C(=O)N(C1CCC(=O)NC1=O)C2=O (stereo not given)
Solution: 8.11

Exercise: For the compound O=C1CCC(N2C(=O)c3cccc(NCc4ccc(CC(=O)N5CCC(F)(Cn6cnc(-c7ccc(F)cn7)c6-c6ccnc7[nH]ccc67)CC5)cc4)c3C2=O)C(=O)N1 (stereo not given) , what pEC50 is on record?
Solution: 8.04

Exercise: I'd like to know its pEC50. The compound in question is O=C1CCC(N2C(=O)c3cccc(NCCOCCOCCOCCC(=O)N4CCC(F)(Cn5cnc(-c6ccc(F)cn6)c5-c5ccnc6[nH]ccc56)CC4)c3C2=O)C(=O)N1 (stereo not given)
Solution: 6.33

Exercise: I am curious: what pEC50 value has been reported for O=C1CCC(N2C(=O)c3cccc(NCCCCCC(=O)N4CCC(F)(Cn5cnc(-c6ccc(F)cn6)c5-c5ccnc6[nH]ccc56)CC4)c3C2=O)C(=O)N1 (stereo not given) ?
Solution: 8.37

Exercise: Returns the measured pEC50 for the input compound. Input: O=C(COc1cccc2c1C(=O)N(C1CCC(=O)NC1=O)C2=O)NCc1ccc(CC(=O)N2CCC(F)(Cn3cnc(-c4ccc(F)cn4)c3-c3ccnc4[nH]ccc34)CC2)cc1 (stereo not given)
Solution: 8.34

---

tgt: von Hippel-Lindau disease tumor suppressor/Casein kinase I isoform alpha (Homo sapiens) (UniProt P48729+P40337)
Sequence (P40337 whole entry, looked up, the tested form may be a part, canonical isoform): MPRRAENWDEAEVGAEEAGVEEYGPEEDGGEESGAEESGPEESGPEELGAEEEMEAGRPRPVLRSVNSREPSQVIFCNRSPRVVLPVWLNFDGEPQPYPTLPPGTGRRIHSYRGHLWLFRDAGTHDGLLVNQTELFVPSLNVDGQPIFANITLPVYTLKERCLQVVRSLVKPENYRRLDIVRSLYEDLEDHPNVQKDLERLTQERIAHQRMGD
Sequence (P48729 whole entry, looked up, the tested form may be a part, canonical isoform): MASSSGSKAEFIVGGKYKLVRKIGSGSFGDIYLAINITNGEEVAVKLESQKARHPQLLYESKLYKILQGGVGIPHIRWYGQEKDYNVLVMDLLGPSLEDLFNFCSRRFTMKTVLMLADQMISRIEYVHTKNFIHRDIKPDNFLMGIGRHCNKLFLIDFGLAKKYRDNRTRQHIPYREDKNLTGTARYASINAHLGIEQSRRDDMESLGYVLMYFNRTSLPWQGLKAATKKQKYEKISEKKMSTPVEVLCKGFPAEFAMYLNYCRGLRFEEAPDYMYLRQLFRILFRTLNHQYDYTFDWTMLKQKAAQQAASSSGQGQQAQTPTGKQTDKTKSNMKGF
protocolText: PROTAC activity at VHL/Hibit-fused CK1 alpha in human MV4-11 cells assessed as degradation of CK1-alpha incubated for 6 hrs by Nano-Glo HiBiT assay relative to control
Type: cell-based
observable: Emax

Below, 6 compounds whose answers are already recorded.
Cc1ncsc1-c1ccc(CNC(=O)[C@@H]2C[C@@H](O)CN2C(=O)[C@@H](NC(=O)CC2CCN(C(=O)CCOCCOCCOCCN3CCC(F)(Cn4cnc(-c5ccc(F)cn5)c4-c4ccnc5[nH]ccc45)CC3)CC2)C(C)(C)C)cc1 : < 10%
Cc1ncsc1-c1ccc(CNC(=O)[C@@H]2C[C@@H](O)CN2C(=O)[C@@H](NC(=O)Cc2ccc(CNC(=O)CN3CCC(F)(Cn4cnc(-c5ccc(F)cn5)c4-c4ccnc5[nH]ccc45)CC3)cc2)C(C)(C)C)cc1 : < 10%
Cc1ncsc1-c1ccc(CNC(=O)[C@H]2C[C@H](O)CN2C(=O)[C@H](NC(=O)CCCCCCC(=O)N2CCC(F)(Cn3cnc(-c4ccc(F)cn4)c3-c3ccnc4[nH]ccc34)CC2)C(C)(C)C)cc1 : 35.1%
Cc1ncsc1-c1ccc(CNC(=O)[C@@H]2C[C@H](O)CN2C(=O)[C@@H](NC(=O)CCCCCCC(=O)N2CCC(F)(Cn3cnc(-c4ccc(F)cn4)c3-c3ccnc4[nH]ccc34)CC2)C(C)(C)C)cc1 : < 10%
Cc1ncsc1-c1ccc(CNC(=O)[C@@H]2C[C@@H](O)CN2C(=O)[C@@H](NC(=O)CC2CCN(C(=O)CN3CCC(F)(Cn4cnc(-c5ccc(F)cn5)c4-c4ccnc5[nH]ccc45)CC3)CC2)C(C)(C)C)cc1 : < 10%
Cc1ncsc1-c1ccc(CNC(=O)[C@@H]2C[C@@H](O)CN2C(=O)[C@@H](NC(=O)CC2CN(C(=O)CCOCCOCCOCCN3CCC(F)(Cn4cnc(-c5ccc(F)cn5)c4-c4ccnc5[nH]ccc45)CC3)C2)C(C)(C)C)cc1 : < 10%

Exercise: Return reported Emax; argument: `Cc1ncsc1-c1ccc(CNC(=O)[C@@H]2C[C@@H](O)CN2C(=O)[C@@H](NC(=O)CCOCCOCCOCCN2CCC(F)(Cn3cnc(-c4ccc(F)cn4)c3-c3ccnc4[nH]ccc34)CC2)C(C)(C)C)cc1`
Solution: 35.9%

Exercise: Query (compound): `Cc1ncsc1-c1ccc(CNC(=O)[C@@H]2C[C@@H](O)CN2C(=O)[C@@H](NC(=O)CCOCCOCCN2CCC(F)(Cn3cnc(-c4ccc(F)cn4)c3-c3ccnc4[nH]ccc34)CC2)C(C)(C)C)cc1` ; field requested: Emax
Solution: 17.3%

Exercise: // lookup Emax for `Cc1ncsc1-c1ccc(CNC(=O)[C@@H]2C[C@@H](O)CN2C(=O)[C@@H](NC(=O)CC2CN(C(=O)CN3CCC(F)(Cn4cnc(-c5ccc(F)cn5)c4-c4ccnc5[nH]ccc45)CC3)C2)C(C)(C)C)cc1`
Solution: < 10%

Exercise: Give its Emax value. Item: `Cc1ncsc1-c1ccc(CNC(=O)[C@@H]2C[C@@H](O)CN2C(=O)[C@@H](NC(=O)CCOCCOCCOCCOCCN2CCC(F)(Cn3cnc(-c4ccc(F)cn4)c3-c3ccnc4[nH]ccc34)CC2)C(C)(C)C)cc1`
Solution: < 10%

Exercise: # Emax lookup, item `Cc1ncsc1-c1ccc(CNC(=O)[C@@H]2C[C@@H](O)CN2C(=O)[C@@H](NC(=O)CC2CN(C(=O)CCOCCOCCN3CCC(F)(Cn4cnc(-c5ccc(F)cn5)c4-c4ccnc5[nH]ccc45)CC3)C2)C(C)(C)C)cc1`
Solution: < 10%
